For each of the molecules below, state its MIC.
Test system: Staphylococcus aureus (MSSA)
Details: 24 h
Description: (“Approved Standard M7-A3”). The antimicrobial lipopeptide derivatives described herein were tested for antimicrobial activity against Gram-positive bacteria as follows. The minimum inhibitory concentrations (MIC) of the antimicrobial lipopeptide derivatives of the invention were determined using NCCLS guidelines M7-A6 (2003) with a slight modification in that doubling serial dilutions were used to dilute the test compounds. The broth phase microdilution method was used. […]
Starred links: 1 amine or outer side, 2 acyl side, 3 side chain; linkers in the order of their positions; H or OH if unused. Positions of bridges follow the written chain, without caps; N, C: chain ends. Non-standard residues stand in square brackets, D forms with d. Residues, ends and D or L forms follow the SMILES beside them. ξ: configuration not given here. *: point of attachment. ξAbu(βξ-NH2) = CC(N[*:3])C(N[*:1])C(=O)[*:2]; X38 = CC(NC(=O)CCCN(C)C)C(N[*:1])C(=O)[*:2]; Benzoyl(3-OPh) = O=C(c1cccc(Oc2ccccc2)c1)*; Pentadecanoyl = CCCCCCCCCCCCCCC(=O)*; ξAsp(βξ-Me) = CC(C(=O)O)C(N)C(=O)O; ξAbu(3ξ-NH2) = CC(N)C(N)C(=O)O; Pip = O=C(O)[CH]1CCCCN1

Query :: Form field: MIC recorded for CC(C)C1NC(=O)C(C(C)N)NC(=O)CNC(=O)C(CC(=O)O)NC(=O)CNC(=O)C(CC(=O)O)NC(=O)C(C(C)C(=O)O)NC(=O)C2CCCCN2C(=O)C(NC(=O)C(CC(=O)O)NC(=O)c2cccc(Oc3ccccc3)c2)C(C)NC(=O)C2CCCN2C1=O (stereo not drawn) [Compound 327, (3-(Phenoxy)-Benzoyl)-Amphomycin] ({Benzoyl(3-OPh)}-D[ξAbu(βξ-NH2)][Pip][ξAsp(βξ-Me)]DGDG[ξAbu(3ξ-NH2)]VP; lactam 2-C; configuration not given here) with Staphylococcus aureus (MSSA) (enter value)
Result :: >64 µg/mL

Query :: Form field: MIC recorded for CCCCCCCCCCCCCCC(=O)NC(CC(=O)O)C(=O)NC1C(=O)N2CCCCC2C(=O)NC(C(C)C(=O)O)C(=O)NC(CC(=O)O)C(=O)NCC(=O)NC(CC(=O)O)C(=O)NCC(=O)NC(C(C)NC(=O)CCCN(C)C)C(=O)NC(C(C)C)C(=O)N2CCCC2C(=O)NC1C (stereo not drawn) [Compound 242, C15-Amphomycin-9-(N,N′-Dimethyl-GABA)] (Pentadecanoyl-D[ξAbu(βξ-NH2)][Pip][ξAsp(βξ-Me)]DGDG[X38]VP; lactam 2-C; configuration not given here) with Staphylococcus aureus (MSSA) (enter value)
Result :: 1 to 2 µg/mL

---

tested on: Staphylococcus aureus (MSSA); conditions: 24 h
Starred links: 1 amine or outer side, 2 acyl side, 3 side chain; linkers in the order of their positions; H or OH if unused. Positions of bridges follow the written chain, without caps; N, C: chain ends. Non-standard residues stand in square brackets, D forms with d. Residues, ends and D or L forms follow the SMILES beside them. ξ: configuration not given here. *: point of attachment. X40 = CC(NC(=O)CCN1CCNCC1)C(N[*:1])C(=O)[*:2]; ξAbu(3ξ-NHCOCH2NH2) = CC(NC(=O)CN)C(N)C(=O)O; ξAbu(βξ-NH2) = CC(N[*:3])C(N[*:1])C(=O)[*:2]; Pentadecanoyl = CCCCCCCCCCCCCCC(=O)*; X8 = O=C(/C=C/c1ccc(N[*:1])cc1)[*:2]; ξAsp(βξ-Me) = CC(C(=O)O)C(N)C(=O)O; Lauroyl = CCCCCCCCCCCC(=O)*; Pip = O=C(O)[CH]1CCCCN1
Measurement kind: MIC

Query :: Form field: reported MIC of CCCCCCCCCCCC(=O)Nc1ccc(/C=C/C(=O)NC(CC(=O)O)C(=O)NC2C(=O)N3CCCCC3C(=O)NC(C(C)C(=O)O)C(=O)NC(CC(=O)O)C(=O)NCC(=O)NC(CC(=O)O)C(=O)NCC(=O)NC(C(C)NC(=O)CN)C(=O)NC(C(C)C)C(=O)N3CCCC3C(=O)NC2C)cc1 (stereo not drawn) [Compound 89, C12-(p-Trans-Cinnamyl)-Amphomycin-9-Gly] (Lauroyl-[X8]D[ξAbu(βξ-NH2)][Pip][ξAsp(βξ-Me)]DGDG[ξAbu(3ξ-NHCOCH2NH2)]VP; lactam 3-C; configuration not given here)
Result :: 0.5 to 1 µg/mL

Query :: Form field: reported MIC of CCCCCCCCCCCCCCC(=O)NC(CC(=O)O)C(=O)NC1C(=O)N2CCCCC2C(=O)NC(C(C)C(=O)O)C(=O)NC(CC(=O)O)C(=O)NCC(=O)NC(CC(=O)O)C(=O)NCC(=O)NC(C(C)NC(=O)CCN2CCNCC2)C(=O)NC(C(C)C)C(=O)N2CCCC2C(=O)NC1C (stereo not drawn) [Compound 241] (Pentadecanoyl-D[ξAbu(βξ-NH2)][Pip][ξAsp(βξ-Me)]DGDG[X40]VP; lactam 2-C; configuration not given here)
Result :: 1 to 2 µg/mL

---

assay: In vivo half-life after single i.v. administration, mice; conditions: female, Swiss CD1, mouse, plasma, iv, 10 mg/kg
Starred links: 1 amine or outer side, 2 acyl side, 3 side chain; linkers in the order of their positions; H or OH if unused. Positions of bridges follow the written chain, without caps; N, C: chain ends. Non-standard residues stand in square brackets, D forms with d. Residues, ends and D or L forms follow the SMILES beside them. ξ: configuration not given here. *: point of attachment. ξAbu(βξ-NH2) = CC(N[*:3])C(N[*:1])C(=O)[*:2]; ξAsp(βξ-Me) = CC(C(=O)O)C(N)C(=O)O; X1 = O=C(Cc1ccc(N[*:1])cc1)[*:2]; ξAbu(3ξ-NH2) = CC(N)C(N)C(=O)O; Lauroyl = CCCCCCCCCCCC(=O)*; Pip = O=C(O)[CH]1CCCCN1
Measurement kind: half-life (h)
# number only, unit h dropped from output

Query :: Form field: reported half-life of CCCCCCCCCCCC(=O)Nc1ccc(CC(=O)NC(CC(=O)O)C(=O)NC2C(=O)N3CCCCC3C(=O)NC(C(C)C(=O)O)C(=O)NC(CC(=O)O)C(=O)NCC(=O)NC(CC(=O)O)C(=O)NCC(=O)NC(C(C)N)C(=O)NC(C(C)C)C(=O)N3CCCC3C(=O)NC2C)cc1 (stereo not drawn) [Compound 119, C12-(p-Apa)-Amphomycin] (Lauroyl-[X1]D[ξAbu(βξ-NH2)][Pip][ξAsp(βξ-Me)]DGDG[ξAbu(3ξ-NH2)]VP; lactam 3-C; configuration not given here)
Result :: 4.22

Query :: Form field: reported half-life of CC(=O)Nc1ccc(C(=O)NC(CC(=O)O)C(=O)NC2C(=O)N3CCCCC3C(=O)NC(C(C)C(=O)O)C(=O)NC(CC(=O)O)C(=O)NCC(=O)NC(CC(=O)O)C(=O)NCC(=O)NC(C(C)N)C(=O)NC(C(C)C)C(=O)N3CCCC3C(=O)NC2C)cc1 (stereo not drawn)
Result :: 5.17

Query :: Form field: reported half-life of CCCCCCCCCCCC(=O)Nc1ccc(C(=O)NC(CC(=O)O)C(=O)NC2C(=O)N3CCCCC3C(=O)NC(C(C)C(=O)O)C(=O)NC(CC(=O)O)C(=O)NCC(=O)NC(CC(=O)O)C(=O)NCC(=O)NC(C(C)NC(=O)CCN)C(=O)NC(C(C)C)C(=O)N3CCCC3C(=O)NC2C)cc1 (stereo not drawn)
Result :: 5.75

---

system: Staphylococcus aureus (MSSA); details: 24 h
Measurement kind: MIC (µg/mL)
# number only, unit µg/mL dropped from output

Query :: Form field: reported MIC of CCCCCCCCCCCCCCC(=O)NC(CC(=O)O)C(=O)NC1C(=O)N2CCCCC2C(=O)NC(C(C)C(=O)O)C(=O)NC(CC(=O)O)C(=O)NCC(=O)NC(CC(=O)O)C(=O)NCC(=O)NC(C(C)NC(=O)[C@H](CCCCN)NC(=O)[C@@H](N)CCCCN)C(=O)NC(C(C)C)C(=O)N2CCCC2C(=O)NC1C (some centres unmarked)
Result :: 2

---

Test system: Staphylococcus aureus (MSSA)
Conditions: 24 h
Protocol: (“Approved Standard M7-A3”). The antimicrobial lipopeptide derivatives described herein were tested for antimicrobial activity against Gram-positive bacteria as follows. The minimum inhibitory concentrations (MIC) of the antimicrobial lipopeptide derivatives of the invention were determined using NCCLS guidelines M7-A6 (2003) with a slight modification in that doubling serial dilutions were used to dilute the test compounds. The broth phase microdilution method was used. […]
For each of the molecules below, state its MIC.

Query :: Form field: MIC recorded for CCCCCCCCCCCCCCCCC(=O)NC(CC(=O)O)C(=O)NC1C(=O)N2CCCCC2C(=O)NC(C(C)C(=O)O)C(=O)NC(CC(=O)O)C(=O)NCC(=O)NC(CC(=O)O)C(=O)NCC(=O)NC(C(C)N)C(=O)NC(C(C)C)C(=O)N2CCCC2C(=O)NC1C (stereo not drawn) with Staphylococcus aureus (MSSA) (enter value)
Result :: 1 to 2 µg/mL

Query :: Form field: MIC recorded for CCCCCCCCCC(=O)N(C)CC(=O)NC(CC(=O)O)C(=O)NC1C(=O)N2CCCCC2C(=O)NC(C(C)C(=O)O)C(=O)NC(CC(=O)O)C(=O)NCC(=O)NC(CC(=O)O)C(=O)NCC(=O)NC(C(C)N)C(=O)NC(C(C)C)C(=O)N2CCCC2C(=O)NC1C (stereo not drawn) with Staphylococcus aureus (MSSA) (enter value)
Result :: >64 µg/mL

Query :: Form field: MIC recorded for CCCCCCCCCCCNC(=O)NCCC(=O)NC(CC(=O)O)C(=O)NC1C(=O)N2CCCCC2C(=O)NC(C(C)C(=O)O)C(=O)NC(CC(=O)O)C(=O)NCC(=O)NC(CC(=O)O)C(=O)NCC(=O)NC(C(C)N)C(=O)NC(C(C)C)C(=O)N2CCCC2C(=O)NC1C (stereo not drawn) with Staphylococcus aureus (MSSA) (enter value)
Result :: 2 µg/mL
